The reported numbers originate from the RNAGym collection of RNA variant scans (doi:10.1021/acssynbio.7b00057).

B1: Pistol ribozyme (parent)
chain: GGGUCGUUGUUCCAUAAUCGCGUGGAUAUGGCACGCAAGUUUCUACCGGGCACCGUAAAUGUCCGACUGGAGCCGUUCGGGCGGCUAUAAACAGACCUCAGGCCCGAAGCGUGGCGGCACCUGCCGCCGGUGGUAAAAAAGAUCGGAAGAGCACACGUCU

Variants of: B1
Assay: aptazyme ON/OFF ratio, guanine; higher = stronger switching; co-transcriptional cleavage with and without guanine
Result Type: aptazyme ON/OFF ratio

INSERT INTO measurements (mutation_list, result_type, reported_value) VALUES
  ('G9A U10C U11G C12A C13G', 'aptazyme ON/OFF ratio', 1.3),
  ('U7A U8C G9U U10G C12G C13U', 'aptazyme ON/OFF ratio', 1.28),
  ('U7C U8A G9U U10G U11C C12U C13G', 'aptazyme ON/OFF ratio', 1.14),
  ('U7C U8C G9C U10G C12A C13U', 'aptazyme ON/OFF ratio', 1.1),
  ('U7A U8C G9C U11G C12G C13G', 'aptazyme ON/OFF ratio', 1.12),
  ('U7G U8A G9U U10G U11A C12A C13U', 'aptazyme ON/OFF ratio', 1.07),
  ('U7G U8C G9C U10G U11G C12U C13G', 'aptazyme ON/OFF ratio', 1.09),
  ('U7C U8G G9U U11A C12U', 'aptazyme ON/OFF ratio', 1.39),
  ('U7A G9U U10A U11A C12A', 'aptazyme ON/OFF ratio', 1.43),
  ('U7G U8G G9A U11A C12G C13G', 'aptazyme ON/OFF ratio', 1.06),
  ('U8A G9A U11G C12U C13U', 'aptazyme ON/OFF ratio', 1.51),
  ('U7A U8G G9C U10A U11A C12U C13G', 'aptazyme ON/OFF ratio', 1.34),
  ('U8G G9A U10A U11G', 'aptazyme ON/OFF ratio', 1.55),
  ('U7G U8C G9C U10A U11A C12G C13A', 'aptazyme ON/OFF ratio', 1.1),
  ('U7G U8A G9U C13G', 'aptazyme ON/OFF ratio', 1.06),
  ('U7G G9C U10G C12U C13A', 'aptazyme ON/OFF ratio', 1.24),
  ('U7C G9U U10G C13A', 'aptazyme ON/OFF ratio', 1.25),
  ('U7A U8A G9A U10A U11G C12A C13U', 'aptazyme ON/OFF ratio', 1.24),
  ('U7G U8C G9C U11C C12G', 'aptazyme ON/OFF ratio', 1.34),
  ('U7A U8G G9A U10C U11A C12U C13G', 'aptazyme ON/OFF ratio', 1.06),
  ('U7G G9C U10C U11A', 'aptazyme ON/OFF ratio', 1.65),
  ('U7C U8C G9C U10A U11C C12U', 'aptazyme ON/OFF ratio', 1.17);
